Biological target: P. falciparum deoxyhypusine synthase (DHS) (Plasmodium falciparum, UniProt Q9GSW0)
Construct: recombinant, truncated P. falciparum DHS, N-terminally histidine-tagged
Sequence (Q9GSW0 1-496): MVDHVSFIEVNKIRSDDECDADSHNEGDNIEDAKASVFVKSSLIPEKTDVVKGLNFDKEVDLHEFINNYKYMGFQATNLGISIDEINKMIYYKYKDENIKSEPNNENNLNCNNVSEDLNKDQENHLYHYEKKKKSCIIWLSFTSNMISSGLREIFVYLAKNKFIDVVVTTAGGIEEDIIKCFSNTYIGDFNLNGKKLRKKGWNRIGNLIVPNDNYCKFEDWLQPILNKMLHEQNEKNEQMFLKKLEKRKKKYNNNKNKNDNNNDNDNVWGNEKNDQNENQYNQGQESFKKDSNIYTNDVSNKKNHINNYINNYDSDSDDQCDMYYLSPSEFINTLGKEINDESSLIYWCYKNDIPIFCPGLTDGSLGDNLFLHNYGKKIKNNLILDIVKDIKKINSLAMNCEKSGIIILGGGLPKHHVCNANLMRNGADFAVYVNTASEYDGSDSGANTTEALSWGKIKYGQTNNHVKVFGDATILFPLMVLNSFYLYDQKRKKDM
Experiment: deoxyhypusine formation assay with purified recombinant PfDHS, GC/MS readout; partial (max […]) inhibition
Assay type: biochemical
Readout Kind: IC50 (nM)
Report the value in nM with no unit label.

Observed IC50 on P. falciparum deoxyhypusine synthase (DHS) (Plasmodium falciparum, UniProt Q9GSW0) for O=C(Nc1cccc2[nH]ccc12)c1cc2ccc(Br)cc2s1 , please.
340
